Target: T1, PrgE WT (Enterococcus faecalis (plasmid pCF10), UniProt D1LHE9 1-144)
T1 sequence: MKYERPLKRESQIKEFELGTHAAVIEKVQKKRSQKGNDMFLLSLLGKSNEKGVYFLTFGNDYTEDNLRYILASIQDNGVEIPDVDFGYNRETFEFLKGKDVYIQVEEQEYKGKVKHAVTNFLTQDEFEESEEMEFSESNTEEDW
Test: fluorescence anisotropy; 50 mM NaCl; 20 mM Hepes pH 7.5, 50 or 100 mM NaCl, 10 nM FITC-DNA, 0-20 uM protein, 30 min at RT
Settings: protein: recombinant; tags: C-terminal 10xHis removed with 3C (PreScission) protease; chain copies: 3; label: 5' FITC; single strand
ENDPOINT LABEL: Kd (nM)
// units = nM; emit number, no label

response.value for CAGTGACAGTCTCCACGGTGAAGCAGTCGT (ssDNA) [30-mer ssDNA] (field: Kd) = 1020
